Target: human GPR40 (Homo sapiens, UniProt O14842)
Sequence (O14842 whole entry): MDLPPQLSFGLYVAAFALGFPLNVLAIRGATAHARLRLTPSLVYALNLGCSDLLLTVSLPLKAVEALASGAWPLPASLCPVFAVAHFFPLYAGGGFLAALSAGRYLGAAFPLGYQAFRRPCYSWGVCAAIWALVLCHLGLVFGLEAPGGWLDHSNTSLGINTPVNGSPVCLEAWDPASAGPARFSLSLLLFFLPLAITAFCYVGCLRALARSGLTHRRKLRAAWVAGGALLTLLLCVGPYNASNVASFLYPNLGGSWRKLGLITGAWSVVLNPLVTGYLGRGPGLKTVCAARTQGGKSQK
Assay: GPR40 calcium flux assay, human GPR40
Settings: HEK293 cells stably expressing GPR40; table does not say human or rat
QUANTITY: EC50

For orientation, consider the following solved cases.
COMPOUND | QUANTITY | ASSAY RESULT
O=C(O)CCc1cc(F)c(OCC2=C(c3ccco3)CCC(F)(F)C2)c(F)c1 [Compound 569] | EC50 | > 5 µM
O=C(O)CCc1cc(Br)c(OCC2=C(c3ccc(Cl)cc3)CCC2)c(Br)c1C(F)(F)F [Compound 101] | EC50 | > 5 µM

Switching to the query record.
Form: compound = O=C(O)CCc1cc(F)c(OCC2=C(c3ccc(Cl)cc3)CCC2)cc1C(F)(F)F [Compound 91] ; EC50 = > 5 µM
